Study System: Calcium/calmodulin-dependent protein kinase type IV (Homo sapiens) (UniProt Q16566);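 note: each value is a mean inhibition of CAMK4, part of the GSK PKIS kinase screening panel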
Sequence (Q16566 whole entry): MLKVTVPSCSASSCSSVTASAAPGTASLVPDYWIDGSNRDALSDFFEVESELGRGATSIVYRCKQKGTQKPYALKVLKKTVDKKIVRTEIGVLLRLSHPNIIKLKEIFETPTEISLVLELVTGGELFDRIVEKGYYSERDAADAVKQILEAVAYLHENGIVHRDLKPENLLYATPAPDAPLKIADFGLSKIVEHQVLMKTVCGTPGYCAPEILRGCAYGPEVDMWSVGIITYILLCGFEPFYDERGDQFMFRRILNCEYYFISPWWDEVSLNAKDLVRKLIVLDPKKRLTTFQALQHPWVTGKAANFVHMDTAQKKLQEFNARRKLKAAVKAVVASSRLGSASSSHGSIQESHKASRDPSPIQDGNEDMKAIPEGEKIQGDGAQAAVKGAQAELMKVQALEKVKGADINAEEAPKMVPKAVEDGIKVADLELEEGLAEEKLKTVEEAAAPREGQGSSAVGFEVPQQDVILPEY
Measurement Conditions: at 0.1 µM
Items are presented alongside their recorded inhibition.
Measurement Label: inhibition (%)

>  <Chemical Structure>
C[C@@H](Oc1cc(-n2cnc3ccc(OCC4CCN(C)CC4)cc32)sc1C(N)=O)c1ccccc1Cl

>  <Result Units>
%

>  <Recorded Result>
0.69

$$$$
>  <Chemical Structure>
Fc1ccc(-c2ncn(C3CCNCC3)c2-c2ccnc(Oc3ccc(Oc4ccccc4)cc3)n2)cc1

>  <Result Units>
%

>  <Recorded Result>
-1.5

$$$$
>  <Chemical Structure>
c1ccc(Oc2ccc(Nc3ncc(-c4ccccc4)o3)cc2)cc1

>  <Result Units>
%

>  <Recorded Result>
0.49

$$$$
>  <Chemical Structure>
C[C@@H](Oc1cc(-n2cnc3ccc(OC4CCN(C)CC4)cc32)sc1C(N)=O)c1ccccc1Cl

>  <Result Units>
%

>  <Recorded Result>
-2.92

$$$$
>  <Chemical Structure>
Cc1ccc(C(=O)NC(C)C)cc1-c1ccc(C(=O)NCC2CC2)cc1

>  <Result Units>
%

>  <Recorded Result>
-0.94

$$$$
>  <Chemical Structure>
O=C(Nc1n[nH]c2cc(-c3ccccc3)ccc12)C1CC1

>  <Result Units>
%

>  <Recorded Result>
-1.93

$$$$
>  <Chemical Structure>
Cc1nnc(-c2ccc(C)c(-c3ccc(C(=O)NCc4ccc(Cl)cc4)cc3)c2)o1

>  <Result Units>
%

>  <Recorded Result>
0.34

$$$$
>  <Chemical Structure>
O=C(Nc1n[nH]c2cc(-c3cc(F)ccc3F)ccc12)C1CC1

>  <Result Units>
%

>  <Recorded Result>
1.86

$$$$
>  <Chemical Structure>
O=C(Nc1ccc(Oc2ccc3[nH]c(NC(=O)c4ccccc4)nc3c2)cc1)Nc1cc(C(F)(F)F)ccc1F

>  <Result Units>
%

>  <Recorded Result>
-0.56

$$$$
